Experiment: NCI Yeast Anticancer Drug Screen. Data for the sgs1 mgt1 strain (AID 161);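 also: 0% = growth of cultures given vehicle only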
Details: S. cerevisiae sgs1 mgt1 strain, active compounds read high; at 50.0 µM unless noted
Procedure: Growth inhibition of yeast strains with defined genetic alterations is measured as a screen for potential anti-cancer activity. Selected strains with alterations in DNA damage repair or cell cycle control were exposed to compounds and growth inhibition was measured relative to vehicle treated controls. The strain used in this assay is sgs1 mgt1
The panel holds about 79,000 compounds, 15% with a hit somewhere; the sample as a whole holds those more often. Activity calls are given as the source filed them. Rule as the data show it: active = growth inhibition above about 70%; inactive = the rest.
Reported growth inhibition values for a set of compounds
PROPERTY_NAME: growth inhibition

                                   compound             result
0                           O=C1OCc2ccccc21   11.2% (inactive)
1                 CCNC(=O)COc1ccc(Cl)c(C)c1  -30.4% (inactive)
2                     CCCCCP(=O)(O)O.[Cu+2]   -9.9% (inactive)
3  O=C(O)[C@H](Cc1ccccc1)N1C(=O)N[C@@H](Cc2ccccc2)C1=O   4.75% (inactive)
4                      Cc1ccc(OCCC(=O)O)cc1  -11.2% (inactive)
5                  NC(=O)Nc1ccccc1-c1ccccc1   13.8% (inactive)
6  CC1(CCC(=O)O)C(=O)C(=O)CC2C1CCC1(C)C(O)CCC21 (configuration not stated)  -7.25% (inactive)
